MEASURED_ON: MLKL (Homo sapiens)
Sequence (Q8NB16 1-471): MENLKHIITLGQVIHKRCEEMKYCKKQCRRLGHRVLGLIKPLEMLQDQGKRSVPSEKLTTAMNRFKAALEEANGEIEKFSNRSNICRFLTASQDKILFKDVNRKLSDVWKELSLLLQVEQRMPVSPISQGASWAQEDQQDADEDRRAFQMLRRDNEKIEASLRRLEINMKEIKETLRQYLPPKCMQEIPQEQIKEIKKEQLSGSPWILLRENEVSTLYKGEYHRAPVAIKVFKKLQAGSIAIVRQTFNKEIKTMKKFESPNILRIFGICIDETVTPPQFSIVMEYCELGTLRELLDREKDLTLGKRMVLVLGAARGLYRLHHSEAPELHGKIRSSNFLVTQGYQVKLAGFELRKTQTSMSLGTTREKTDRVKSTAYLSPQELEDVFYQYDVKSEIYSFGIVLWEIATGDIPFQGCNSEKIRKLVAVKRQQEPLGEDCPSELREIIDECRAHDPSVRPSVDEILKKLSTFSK
PROTOCOL: MLKL degradation assay in HepG2 cell line (western blot)
Assay type: cell-based
Design: endogenous in cells; host or cells: HepG2 or HaCaT
TEST_PARAMETERS: compound 10 μM; cell line not given
MEASUREMENT_TYPE: Degradation assay (Degradation %) 10 μM

Use the examples below as a reference point.
# COMPOUND, MEASURED_ON, MEASUREMENT_TYPE, U, NUMERIC_VALUE
records = [
    ("Nc1ncc(-c2cnn(C3CCN(CCC4CCN(CC5CCN(c6cc7c(cc6F)C(=O)N(C6CCC(=O)NC6=O)C7=O)CC5)CC4)CC3)c2)nc1C(=O)O[C@@H](C(=O)Nc1ccc(F)cc1)c1ccccc1 (stereo partly shown)", "MLKL (Homo sapiens)", "Degradation assay (Degradation %) 10 μM", "%", 84.44),
    ("Nc1ncc(-c2cnn(C3CCN(CC4CCN(C(=O)CNc5ccc6c(c5)C(=O)N(C5CCC(=O)NC5=O)C6=O)CC4)CC3)c2)nc1C(=O)N[C@@H](C(=O)Nc1ccc(F)cc1)c1ccccc1 (stereo partly shown)", "MLKL (Homo sapiens)", "Degradation assay (Degradation %) 10 μM", "%", 24.18),
    ("Nc1ncc(-c2cnn(C3CCN(CCCCCCNC(=O)COc4ccc5c(c4)C(=O)N(C4CCC(=O)NC4=O)C5=O)CC3)c2)nc1C(=O)O[C@@H](C(=O)Nc1ccc(F)cc1)c1ccccc1 (stereo partly shown)", "MLKL (Homo sapiens)", "Degradation assay (Degradation %) 10 μM", "%", 61.44),
    ("Nc1ncc(-c2cnn(C3CCN(CC4CCN(CC5CCN(C(=O)COc6ccc7c(c6)C(=O)N(C6CCC(=O)NC6=O)C7=O)CC5)CC4)CC3)c2)nc1C(=O)O[C@@H](C(=O)Nc1ccc(F)cc1)c1ccccc1 (stereo partly shown)", "MLKL (Homo sapiens)", "Degradation assay (Degradation %) 10 μM", "%", 88.68),
    ("Nc1ncc(-c2cnn(C3CCN(C(=O)CCC4CCN(C(=O)CCc5cccc6c5CN(C5CCC(=O)NC5=O)C6=O)CC4)CC3)c2)nc1C(=O)O[C@@H](C(=O)Nc1ccc(F)cc1)c1ccccc1 (stereo partly shown)", "MLKL (Homo sapiens)", "Degradation assay (Degradation %) 10 μM", "%", 91.86),
    ("Nc1ncc(-c2cnn(C3CCN(CCOCCOCCOCCNC(=O)COc4cccc5c4C(=O)N(C4CCC(=O)NC4=O)C5=O)CC3)c2)nc1C(=O)O[C@@H](C(=O)Nc1ccc(F)cc1)c1ccccc1 (stereo partly shown)", "MLKL (Homo sapiens)", "Degradation assay (Degradation %) 10 μM", "%", 63.85),
    ("Nc1ncc(-c2cnn(C3CCN(CC4CCN(CC5CCN(C(=O)CNc6ccc7c(c6)C(=O)N(C6CCC(=O)NC6=O)C7=O)CC5)CC4)CC3)c2)nc1C(=O)O[C@@H](C(=O)Nc1ccc(F)cc1)c1ccccc1 (stereo partly shown)", "MLKL (Homo sapiens)", "Degradation assay (Degradation %) 10 μM", "%", 57.41),
    ("Nc1ncc(-c2cnn(C3CCN(CC4CCN(C(=O)CCc5ccc6c(c5)C(=O)N(C5CCC(=O)NC5=O)C6=O)CC4)CC3)c2)nc1C(=O)O[C@@H](C(=O)Nc1ccc(F)cc1)c1ccccc1 (stereo partly shown)", "MLKL (Homo sapiens)", "Degradation assay (Degradation %) 10 μM", "%", 58.46),
]

A = Nc1ncc(-c2cnn(C3CCN(CCOC4CCN(C(=O)C5CCN(c6cccc7c6C(=O)N(C6CCC(=O)NC6=O)C7=O)CC5)CC4)CC3)c2)nc1C(=O)OC(C(=O)Nc1ccc(F)cc1)c1ccccc1 (stereo not shown)
B = Nc1ncc(-c2cnn(C3CCN(C(=O)CC4CCN(C(=O)COc5ccc6c(c5)C(=O)N(C5CCC(=O)NC5=O)C6=O)CC4)CC3)c2)nc1C(=O)O[C@@H](C(=O)Nc1ccc(F)cc1)c1ccccc1 (stereo partly shown)
Q: Lowest Degradation assay (Degradation %) 10 μM? choose A or B Your answer should be the label attached to the chosen record.
Ans: A
